Target: T1, biotinylated human DLL3 protein expressed as a human IgG1 fusion protein (human, UniProt Q9NYJ7 27-492, limits assumed, biotinylated)
T1 sequence: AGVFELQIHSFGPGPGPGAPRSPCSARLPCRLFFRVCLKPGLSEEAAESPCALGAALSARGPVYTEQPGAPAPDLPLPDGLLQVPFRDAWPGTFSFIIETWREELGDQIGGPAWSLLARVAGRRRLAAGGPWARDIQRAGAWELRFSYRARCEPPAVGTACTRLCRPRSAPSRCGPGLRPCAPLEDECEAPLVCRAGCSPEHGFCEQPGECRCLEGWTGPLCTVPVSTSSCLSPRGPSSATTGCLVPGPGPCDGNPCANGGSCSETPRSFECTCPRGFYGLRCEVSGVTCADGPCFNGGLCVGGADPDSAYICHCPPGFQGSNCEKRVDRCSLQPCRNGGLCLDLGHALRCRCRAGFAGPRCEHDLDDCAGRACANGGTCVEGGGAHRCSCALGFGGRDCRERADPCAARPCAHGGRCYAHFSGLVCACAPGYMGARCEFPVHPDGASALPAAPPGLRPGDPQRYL
Test: Octet BLI, single 50 nM
Below is a list of entries, each paired with its recorded Kd value.
Please reply with the bare figure in nM and do not write the unit itself.

binder	endpoint-unit	Kd
3C01 anti-DLL3 trispecific protein (other, not shown: linker 1808, anti-albumin sdAb, linker 1808, anti-CD3 fragment, His6 1819) EVQLVESGGGLVQPGGSLTLSCAASGSSVRFLSMAWYRQAPGKKRELVAGISAHGSTDYIDSVKGRFTISRDNAKNSVYLQMNSLRAEDTAVYYCYAYRWSTRYTYWGQGTLVTVSS	nM	14
2B07 anti-DLL3 trispecific protein (other, not shown: linker 1808, anti-albumin sdAb, linker 1808, anti-CD3 fragment, His6 1819) EVQLVESGGGLVQPGGSLTLSCVASGSTSSINAFGWYRRAPGKQRELVAGISSDGSKVYADSVKGRFTISRDNAKNSVYLQMNSLRAEDTAVYYCYYFRTVRGSSMRYWGQGTLVTVSS	nM	5.7
1C05 anti-DLL3 trispecific protein (other, not shown: linker 1808, anti-albumin sdAb, linker 1808, anti-CD3 fragment, His6 1819) EVQLVESGGGLVQPGGSLTLSCVASGSTSSINAMAWYRRAPGKQRELVAGISSDGSKVYADSVKGRFTISRDNAKNSVYLQMNSLRAEDTAVYYCYYFRTVSGSHMRYWGQGTLVTVSS	nM	5.3

Let's switch to this binder now.
Q. Recorded Kd for 2D07 anti-DLL3 trispecific protein (other, not shown: linker 1808, anti-albumin sdAb, linker 1808, anti-CD3 fragment, His6 1819) EVQLVESGGGLVQPGGSLTLSCVASGSTSSINAVGWYRRAPGKQRELVAGISSDGTKVYRDSVKGRFTISRDNAKNSVYLQMNSLRAEDTAVYYCYYFRTVQGSSMRYWGQGTLVTVSS , please?
A. 6
